# measured_on: T1, eukaryotically produced human IL-6 (human, UniProt P05231 30-212)
# T1 construct: also called eukIL-6; Euk IL-6
# measurement_description: SPR; purified Fab; IL-6 coated on CM5 chip;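 note: dissociation rate taken from the wash phase, association rate fitted over the injection phase with analyte concentration and dissociation rate as inputs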

binder	koff (s⁻¹)
Fab 24A3 (Fab, V domains shown, Fab; also called 28f10(24A3)) VH: QVQVQESGGGLVQPGGSLRLSCAASGFTFSNYAMSWVRQAPGKGLEWVSGISFRGGMISYVDSVKGRFTISRDNAKNTLYLQMNSLKPEDTAVYYCAKNSGSSRSNALDAWGQGTLVTVSS VL: LNFMLTQPPSVSGSPGQKFTIRCTGSFRSDSYVNWYQQLPGTAPKLLINYDDRRVSGVPSRFSGSKSGNSASLTIDGLQAEDEAEYYCSFWDHTFGGHVFGGGTKLTVLG	0.00011
Fab 29B11 (Fab, V domains shown, Fab) VH: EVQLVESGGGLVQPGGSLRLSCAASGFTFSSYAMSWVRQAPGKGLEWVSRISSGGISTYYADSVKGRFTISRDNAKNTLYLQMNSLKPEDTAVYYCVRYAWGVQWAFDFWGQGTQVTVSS VL: QSVLTQPPSVSGSPGQTVTISCAGTSEDVGYGNYVSWYQQLPGMAPKLLIYDVNKRASGIADRFSGSKSGNTASLTISGLQSEDEADYYCASYRRTIDNIFGGGTHLTVLG	0.0001
Fab 24E9 (Fab, V domains shown, Fab) VH: EVQLVESGGGLVQPGGSLRLSCAASGFTFSTYAMSWVRQAPGKGPEWVSRISSGGGSTNYADSVKGRFTISRDNAKKTLYLQMKSLKPEDTAVYYCANRAGWGMGDYWGQGTQVTVSS VL: QTVVTQEPSLSVSPGGTVTLTCGLSSGSVTASNYPGWFQQTPGQAPRALIYSTNDRHSGVPSRFSGSISGNKAALTITGAQPEDEADYYCALDIGDITEFGGGTHLTVLG	0.00024
Fab 17F10 (Fab, V domains shown, Fab; also called 17F10 pur Fab 68 nM) VH: EVQLQESGPGLVKPSQTLSLTCTVSGGSIATSYYAWSWIRQPPGKGLEWMGVIDYDGDTYYKPSLKSRTSISRDTSKNQFSLQLSSVTPEDTAVYYCARAGLGDSYYLGTYYAMDYWGKGTLVTVSS VL: QAGLTQPPSVSGSPGKTVTISCAGTTSDVGTGNFVSWYQQLPGMAPKLLIYDVNKRASGIADRFSGSKSGNTASLTISGLQSEDEADYYCASYRSLNNVVFGGGTHLTVLG	0.00072
Fab 24D10 (Fab, V domains shown, Fab; also called pur24d10; 28f12(24D10)) VH: QLQVVESGGGLVQPGGSLRLSCAASGFTFSSYAMSWVRQAPGKGPEWVSRISSGGGSTSYADSVKGRFTISRDNAKNTLYLQMNSLKPEDTAVYYCANRAGWGMGDYWGQGTQVTVSS VL: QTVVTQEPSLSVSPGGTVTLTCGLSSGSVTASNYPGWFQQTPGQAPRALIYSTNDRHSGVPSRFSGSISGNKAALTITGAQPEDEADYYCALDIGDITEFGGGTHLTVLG	0.00017
